# System: aorta
# experiment: Isolated rat aorta rings stimulated with potassium-rich solution (K+ 100 mM), relaxation
# Design: species or system rat (male Wistar)
# test_context: Rattus norvegicus, aorta rings stimulated with K+ 100 mM; read-out: AORTA St:K+ IC50
pIC50: −log10 of the molar value.
Reported pIC50 is given for each of the following compounds.
endpoint: pIC50

>>> recorded_value("COc1ccc(CCN(C)CCCC(C#N)(c2ccc(OC)c(OC)c2)C(C)C)cc1OC (centres unmarked) [Verapamil, verapamil, reference compound]")
6.10
>>> recorded_value("COc1ccc(C(C#N)(CCCN(C)CCc2ccc(OC)c3c2CCCN3C(C)=O)Sc2ccccc2)cc1OC (centres unmarked)")
6.44
>>> recorded_value("COc1ccc(C(C#N)(CCCN(C)CCc2ccc(OC)c3c2CCCN3C(C)=O)C(C)C)cc1OC (centres unmarked)")
6.22
>>> recorded_value("COc1cccc(C(C#N)(CCCN(C)CCc2ccc(OC)c3c2CCCN3C(C)=O)Sc2ccccc2)c1 (centres unmarked)")
6.12
>>> recorded_value("COc1cccc(C(C#N)(CCCN(C)CCc2ccc(OC)c3c2CCCN3C(C)=O)C(C)C)c1 (centres unmarked)")
6.60

----------
# Tested on: dogs
# experiment: Haemodynamic study in anaesthetised dogs
# Assay type: in vivo, mongrel dogs
# test_context: IV 300 μg/kg
endpoint: CF: Cardiac frequency, maximum variation (%)

>>> recorded_value("COc1cccc(C(C#N)(CCCN(C)CCc2ccc(OC)c3c2CCCN3C(C)=O)Sc2ccccc2)c1 (centres unmarked)")
-14
>>> recorded_value("COc1ccc(C(C#N)(CCCN(C)CCc2ccc(OC)c3c2CCCN3C(C)=O)Sc2ccccc2)cc1OC (centres unmarked)")
-7
>>> recorded_value("COc1cccc(C(C#N)(CCCN(C)CCc2ccc(OC)c3c2CCCN3C(C)=O)C(C)C)c1 (centres unmarked)")
-15
>>> recorded_value("COc1ccc(CCN(C)CCCC(C#N)(c2ccc(OC)c(OC)c2)C(C)C)cc1OC (centres unmarked) [Verapamil, verapamil, reference compound]")
-8
>>> recorded_value("COc1ccc(C(C#N)(CCCN(C)CCc2ccc(OC)c3c2CCCN3C(C)=O)C(C)C)cc1OC (centres unmarked)")
-17

----------
# measured_target: Ca++ channels of membranes of transverse tubules in skeletal muscle
# Construct: membranes of transverse tubules in skeletal muscle; from tissue; host or cells: skeletal muscle, transverse tubule membranes
# Sequence (Q13698 whole entry): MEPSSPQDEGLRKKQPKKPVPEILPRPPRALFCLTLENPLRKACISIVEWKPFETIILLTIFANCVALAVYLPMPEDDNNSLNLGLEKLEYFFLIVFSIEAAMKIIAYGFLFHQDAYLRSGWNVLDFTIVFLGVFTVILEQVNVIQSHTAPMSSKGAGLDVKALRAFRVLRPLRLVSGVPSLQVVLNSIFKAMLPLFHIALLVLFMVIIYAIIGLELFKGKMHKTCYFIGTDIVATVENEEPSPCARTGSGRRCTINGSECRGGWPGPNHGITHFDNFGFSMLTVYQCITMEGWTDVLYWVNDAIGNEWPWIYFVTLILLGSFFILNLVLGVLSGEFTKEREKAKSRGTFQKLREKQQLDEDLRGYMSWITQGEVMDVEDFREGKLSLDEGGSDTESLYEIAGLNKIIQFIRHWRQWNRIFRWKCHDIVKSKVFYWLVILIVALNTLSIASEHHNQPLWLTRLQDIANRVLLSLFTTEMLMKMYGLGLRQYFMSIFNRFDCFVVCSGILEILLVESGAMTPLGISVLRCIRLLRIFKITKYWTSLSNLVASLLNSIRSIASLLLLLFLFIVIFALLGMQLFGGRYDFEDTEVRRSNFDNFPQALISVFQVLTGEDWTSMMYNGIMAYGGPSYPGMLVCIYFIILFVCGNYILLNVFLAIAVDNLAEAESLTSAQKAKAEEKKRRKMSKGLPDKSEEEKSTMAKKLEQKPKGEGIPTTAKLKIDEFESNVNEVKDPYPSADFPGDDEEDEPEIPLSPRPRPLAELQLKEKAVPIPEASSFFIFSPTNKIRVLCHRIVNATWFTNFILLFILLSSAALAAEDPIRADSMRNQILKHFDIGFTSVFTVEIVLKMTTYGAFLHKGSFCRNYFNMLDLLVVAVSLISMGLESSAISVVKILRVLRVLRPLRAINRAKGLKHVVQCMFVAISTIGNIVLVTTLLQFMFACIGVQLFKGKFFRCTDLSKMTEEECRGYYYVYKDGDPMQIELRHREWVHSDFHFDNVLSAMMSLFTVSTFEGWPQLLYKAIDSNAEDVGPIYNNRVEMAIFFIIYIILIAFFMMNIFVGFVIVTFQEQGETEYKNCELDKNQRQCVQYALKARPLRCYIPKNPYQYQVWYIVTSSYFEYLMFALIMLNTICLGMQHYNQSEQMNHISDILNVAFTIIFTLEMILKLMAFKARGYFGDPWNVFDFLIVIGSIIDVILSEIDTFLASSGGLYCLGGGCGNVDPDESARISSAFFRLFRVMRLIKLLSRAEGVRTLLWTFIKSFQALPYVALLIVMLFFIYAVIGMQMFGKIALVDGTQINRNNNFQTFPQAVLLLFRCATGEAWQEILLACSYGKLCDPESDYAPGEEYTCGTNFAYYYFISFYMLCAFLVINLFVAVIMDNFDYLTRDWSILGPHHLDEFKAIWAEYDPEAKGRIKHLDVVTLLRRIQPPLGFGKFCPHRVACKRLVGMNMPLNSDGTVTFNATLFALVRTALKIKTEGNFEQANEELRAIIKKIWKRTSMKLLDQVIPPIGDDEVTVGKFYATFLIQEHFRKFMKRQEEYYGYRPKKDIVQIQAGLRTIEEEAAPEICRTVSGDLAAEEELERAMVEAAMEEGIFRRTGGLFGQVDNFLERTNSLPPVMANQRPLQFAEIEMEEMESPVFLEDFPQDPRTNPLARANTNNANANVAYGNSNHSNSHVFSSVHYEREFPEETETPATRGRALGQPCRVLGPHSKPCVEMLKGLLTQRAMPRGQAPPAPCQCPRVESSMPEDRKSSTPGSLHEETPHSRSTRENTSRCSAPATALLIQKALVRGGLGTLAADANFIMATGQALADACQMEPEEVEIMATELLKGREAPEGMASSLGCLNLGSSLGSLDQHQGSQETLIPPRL
# Sequence (P54289 25-944 partner limits assumed): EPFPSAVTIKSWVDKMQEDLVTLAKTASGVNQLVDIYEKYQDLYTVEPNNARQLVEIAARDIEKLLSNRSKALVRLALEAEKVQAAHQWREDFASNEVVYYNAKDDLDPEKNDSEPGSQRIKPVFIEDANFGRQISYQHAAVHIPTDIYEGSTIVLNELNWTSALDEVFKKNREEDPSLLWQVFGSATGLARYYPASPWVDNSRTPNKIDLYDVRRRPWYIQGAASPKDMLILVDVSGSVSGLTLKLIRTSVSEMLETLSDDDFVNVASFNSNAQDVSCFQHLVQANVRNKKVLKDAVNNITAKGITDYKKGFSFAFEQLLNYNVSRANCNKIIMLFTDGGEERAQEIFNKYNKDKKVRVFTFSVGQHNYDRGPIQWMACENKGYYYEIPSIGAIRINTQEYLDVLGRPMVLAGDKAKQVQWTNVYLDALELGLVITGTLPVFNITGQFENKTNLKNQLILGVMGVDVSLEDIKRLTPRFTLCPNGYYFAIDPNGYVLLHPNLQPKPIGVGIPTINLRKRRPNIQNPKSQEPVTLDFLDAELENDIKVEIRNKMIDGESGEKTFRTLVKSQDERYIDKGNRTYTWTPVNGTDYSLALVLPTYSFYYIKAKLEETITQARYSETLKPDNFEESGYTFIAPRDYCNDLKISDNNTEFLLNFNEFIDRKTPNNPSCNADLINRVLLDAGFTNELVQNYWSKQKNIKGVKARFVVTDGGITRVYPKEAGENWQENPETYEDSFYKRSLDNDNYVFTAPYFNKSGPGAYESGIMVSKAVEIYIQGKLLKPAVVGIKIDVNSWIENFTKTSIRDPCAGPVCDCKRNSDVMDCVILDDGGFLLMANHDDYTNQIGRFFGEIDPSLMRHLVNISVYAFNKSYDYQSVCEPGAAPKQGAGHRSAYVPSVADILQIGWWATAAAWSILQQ
# Sequence (P54289 945-1103 partner limits assumed): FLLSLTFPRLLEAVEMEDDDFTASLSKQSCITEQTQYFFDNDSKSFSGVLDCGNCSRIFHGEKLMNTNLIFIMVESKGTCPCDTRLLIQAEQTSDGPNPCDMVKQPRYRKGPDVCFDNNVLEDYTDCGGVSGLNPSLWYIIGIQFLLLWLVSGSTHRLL
# Sequence (Q02641 whole entry partner): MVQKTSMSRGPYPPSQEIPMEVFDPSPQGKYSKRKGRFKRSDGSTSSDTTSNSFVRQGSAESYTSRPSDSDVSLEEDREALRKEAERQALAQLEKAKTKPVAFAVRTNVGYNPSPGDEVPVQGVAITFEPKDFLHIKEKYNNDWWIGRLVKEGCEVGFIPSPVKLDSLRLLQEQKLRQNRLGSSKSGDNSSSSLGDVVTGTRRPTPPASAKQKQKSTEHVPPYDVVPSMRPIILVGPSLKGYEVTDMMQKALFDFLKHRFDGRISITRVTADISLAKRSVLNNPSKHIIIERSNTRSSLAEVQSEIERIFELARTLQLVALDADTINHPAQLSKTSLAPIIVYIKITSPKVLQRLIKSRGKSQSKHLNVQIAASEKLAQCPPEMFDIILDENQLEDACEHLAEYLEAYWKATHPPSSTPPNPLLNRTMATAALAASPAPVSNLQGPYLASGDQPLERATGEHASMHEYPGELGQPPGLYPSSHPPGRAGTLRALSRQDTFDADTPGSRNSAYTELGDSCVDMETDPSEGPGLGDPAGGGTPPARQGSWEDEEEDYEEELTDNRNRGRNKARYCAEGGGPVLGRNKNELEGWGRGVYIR
# Sequence (Q06432 whole entry partner): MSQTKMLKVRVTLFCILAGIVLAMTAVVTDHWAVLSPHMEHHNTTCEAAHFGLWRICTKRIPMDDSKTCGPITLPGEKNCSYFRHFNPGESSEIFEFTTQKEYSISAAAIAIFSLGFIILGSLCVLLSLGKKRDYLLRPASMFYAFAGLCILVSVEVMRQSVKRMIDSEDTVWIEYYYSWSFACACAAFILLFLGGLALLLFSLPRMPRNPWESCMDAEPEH
# experiment: Binding on Ca++ channels of membranes of transverse tubules in skeletal muscle
# test_context: transverse tubules in skeletal muscle; read-out: Kd for the Ca++ channel
pKd: −log10 of the molar value.
endpoint: pKd

>>> recorded_value("COc1cccc(C(C#N)(CCCN(C)CCc2ccc(OC)c3c2CCCN3C(C)=O)Sc2ccccc2)c1 (stereo not shown)")
9.00

----------
# System: dogs
# experiment: Haemodynamic study in anaesthetised dogs
# Format: in vivo, mongrel dogs
# test_context: IV 300 μg/kg
endpoint: I/C: Myocardial O2 intake/consumption ratio, maximum variation

>>> recorded_value("COc1ccc(C(C#N)(CCCN(C)CCc2ccc(OC)c3c2CCCN3C(C)=O)C(C)C)cc1OC (stereo not shown) [Example 4]")
"+83%"
>>> recorded_value("COc1cccc(C(C#N)(CCCN(C)CCc2ccc(OC)c3c2CCCN3C(C)=O)C(C)C)c1 (stereo not shown) [Example 13]")
"+99%"
>>> recorded_value("COc1cccc(C(C#N)(CCCN(C)CCc2ccc(OC)c3c2CCCN3C(C)=O)Sc2ccccc2)c1 (stereo not shown) [Example 1]")
"+118%"
>>> recorded_value("COc1ccc(C(C#N)(CCCN(C)CCc2ccc(OC)c3c2CCCN3C(C)=O)Sc2ccccc2)cc1OC (stereo not shown) [Example 7]")
"+52%"

Cited source for all entries: patent US4792559A
